Please respond with reported IC50 for every item in the list.
Target Or Test System: HLA-A02.01 (Homo sapiens, UniProt P04439, D140Y/D185E/D98H/E176V/E277Q/G131W/G231S/I119V/I121R/I166T/I218V/L300P/L318F/N151K/N90K/P208A/P217A/Q86G/Q94H/R138H/R169H/T345S)
Protocol Description: Class I MHC peptide binding affinity (displacement of radiolabeled reference peptide)
Condition Context: Observed Affinity (IC50; (nM)), allele A02.01
Where a SMILES comes first, the peptide text is derived from it.
Give a bare numeral; the unit nM is implied.

Indicate the recorded IC50 value for this compound: CC[C@H](C)[C@H](N)C(=O)N[C@H](C(=O)N[C@H](C(=O)N[C@@H](CCC(=O)O)C(=O)N[C@@H](Cc1ccccc1)C(=O)N[C@@H](CCSC)C(=O)N[C@H](C(=O)N[C@@H](Cc1ccc(O)cc1)C(=O)NCC(=O)O)[C@@H](C)O)[C@@H](C)CC)[C@@H](C)CC (H-IIIEFMTYG-OH; N-terminus and C-terminus assumed)
779

Indicate the recorded IC50 value for this compound: `CC[C@H](C)[C@H](N)C(=O)N[C@H](C(=O)N[C@H](C(=O)N[C@@H](CCC(=O)O)C(=O)N[C@@H](Cc1ccccc1)C(=O)N[C@@H](CCSC)C(=O)N[C@H](C(=O)N[C@@H](Cc1ccc(O)cc1)C(=O)NCC(=O)N[C@@H](CC(N)=O)C(=O)O)[C@@H](C)O)[C@@H](C)CC)[C@@H](C)CC`
1550

Indicate the recorded IC50 value for this compound: CC[C@H](C)[C@H](NC(=O)[C@@H](NC(=O)[C@@H](NC(=O)[C@@H](N)Cc1ccc(O)cc1)[C@@H](C)CC)[C@@H](C)CC)C(=O)N[C@@H](CCC(=O)O)C(=O)N[C@@H](Cc1ccccc1)C(=O)N[C@@H](CCSC)C(=O)N[C@H](C(=O)N[C@@H](Cc1ccc(O)cc1)C(=O)NCC(=O)O)[C@@H](C)O (H-YIIIEFMTYG-OH; N-terminus and C-terminus assumed)
186

====

Target Or Test System: HLA-A02.01 (Homo sapiens, UniProt P04439, D140Y/D185E/D98H/E176V/E277Q/G131W/G231S/I119V/I121R/I166T/I218V/L300P/L318F/N151K/N90K/P208A/P217A/Q86G/Q94H/R138H/R169H/T345S)
Protocol Description: Class I MHC peptide binding affinity (displacement of radiolabeled reference peptide)
Condition Context: allele A02.01; read-out: Observed Affinity (IC50; (nM))
Where a SMILES comes first, the peptide text is derived from it.
Please respond with reported IC50 for every item in the list.
Give a bare numeral; the unit nM is implied.

Indicate the recorded IC50 value for this compound: CC(C)C[C@H](NC(=O)[C@H](CS)NC(=O)[C@H](Cc1c[nH]c2ccccc12)NC(=O)[C@H](CC(C)C)NC(=O)[C@H](CO)NC(=O)[C@H](CO)NC(=O)[C@H](CCCNC(=N)N)NC(=O)[C@H](CCC(N)=O)NC(=O)[C@H](CC(C)C)NC(=O)[C@@H](N)[C@@H](C)O)C(=O)O (H-TLQRSSLWCL-OH; N-terminus and C-terminus assumed)
118

Indicate the recorded IC50 value for this compound: CC(C)C[C@H](NC(=O)[C@H](C)NC(=O)[C@H](Cc1ccccc1)NC(=O)[C@H](CO)NC(=O)[C@@H](NC(=O)[C@H](CCC(N)=O)NC(=O)[C@@H](NC(=O)[C@@H](NC(=O)[C@H](CCC(N)=O)NC(=O)[C@@H](N)CC(C)C)C(C)C)[C@@H](C)O)[C@@H](C)O)C(=O)O [LQVTQTSFAL] (H-LQVTQTSFAL-OH; N-terminus and C-terminus assumed)
718

Indicate the recorded IC50 value for this compound: CC(C)C[C@H](NC(=O)[C@@H]1CCCN1C(=O)[C@@H]1CCCN1C(=O)[C@@H](NC(=O)[C@H](CC(=O)O)NC(=O)[C@H](CCC(=O)O)NC(=O)[C@@H]1CCCN1C(=O)[C@H](CC(C)C)NC(=O)[C@@H](N)CC(C)C)[C@@H](C)O)C(=O)O (H-LLPEDTPPL-OH; N-terminus and C-terminus assumed)
2.8

====

Target Or Test System: HLA-A02.01 (Homo sapiens, UniProt P04439, D140Y/D185E/D98H/E176V/E277Q/G131W/G231S/I119V/I121R/I166T/I218V/N151K/N90K/P208A/P217A/Q86G/Q94H/R138H/R169H)
Construct: made in house; host or cells: E. coli
Protocol Description: Class I MHC peptide binding stability (pMHC-I dissociation, 125I-labeled light chain)
Condition Context: allele A02.01
Where a SMILES comes first, the peptide text is derived from it.
Decide using Stability (T1/2 (h)): a value greater than or equal to 1 h is y, a smaller one is n.

Check if Stability (T1/2 (h)) >= 1 h (inclusive). Item: CC(C)C[C@H](NC(=O)[C@@H](NC(=O)[C@H](CO)NC(=O)[C@@H]1CCCN1C(=O)[C@H](CC(C)C)NC(=O)[C@H](Cc1ccccc1)NC(=O)[C@@H](NC(=O)[C@H](Cc1ccc(O)cc1)NC(=O)[C@@H](NC(=O)CN)C(C)C)[C@@H](C)O)[C@@H](C)O)C(=O)O (H-GVYTFLPSTL-OH; N-terminus and C-terminus assumed)
n

Check if Stability (T1/2 (h)) >= 1 h (inclusive). Item: CC[C@H](C)[C@H](NC(=O)[C@H](CC(N)=O)NC(=O)[C@@H](N)CCSC)C(=O)N[C@@H](C)C(=O)N[C@@H](CC(N)=O)C(=O)N[C@@H](CC(C)C)C(=O)N[C@@H](CC(C)C)C(=O)NCC(=O)N[C@@H](C)C(=O)O (H-MNIANLLGA-OH; N-terminus and C-terminus assumed)
n

Check if Stability (T1/2 (h)) >= 1 h (inclusive). Item: CC[C@H](C)[C@H](NC(=O)[C@H](Cc1ccc(O)cc1)NC(=O)[C@@H]1CCCN1C(=O)[C@H](CO)NC(=O)[C@H](CC(N)=O)NC(=O)[C@H](CO)NC(=O)[C@H](CCC(=O)O)NC(=O)[C@H](Cc1c[nH]cn1)NC(=O)[C@H](CC(C)C)NC(=O)[C@@H](N)C(C)C)C(=O)O (H-VLHESNSPYI-OH; N-terminus and C-terminus assumed)
y

Check if Stability (T1/2 (h)) >= 1 h (inclusive). Item: CC(C)C[C@H](NC(=O)[C@@H](N)CC(C)C)C(=O)N[C@@H](C)C(=O)N[C@@H](Cc1ccccc1)C(=O)N[C@@H](Cc1c[nH]c2ccccc12)C(=O)N[C@@H](CC(=O)O)C(=O)N[C@@H](CO)C(=O)N[C@@H](CCC(N)=O)C(=O)N[C@H](C(=O)O)C(C)C (H-LLAFWDSQV-OH; N-terminus and C-terminus assumed)
y

Check if Stability (T1/2 (h)) >= 1 h (inclusive). Item: CC[C@H](C)[C@H](NC(=O)[C@H](CC(=O)O)NC(=O)[C@H](Cc1ccccc1)NC(=O)[C@H](CC(C)C)NC(=O)[C@@H](NC(=O)[C@H](CCC(=O)O)NC(=O)[C@@H](NC(=O)[C@H](CCSC)NC(=O)[C@@H](N)Cc1c[nH]c2ccccc12)[C@@H](C)O)[C@@H](C)O)C(=O)N[C@H](C(=O)O)C(C)C (H-WMTETLFDIV-OH; N-terminus and C-terminus assumed)
n

====

Target Or Test System: HLA-A02.01 (Homo sapiens, UniProt P04439, D140Y/D185E/D98H/E176V/E277Q/G131W/G231S/I119V/I121R/I166T/I218V/L300P/L318F/N151K/N90K/P208A/P217A/Q86G/Q94H/R138H/R169H/T345S)
Protocol Description: Class I MHC peptide binding affinity (displacement of radiolabeled reference peptide)
Condition Context: allele A02.01; read-out: Observed Affinity (IC50; (nM))
Where a SMILES comes first, the peptide text is derived from it.
Value Kind: log10(IC50) (log10 of the value in nM)
Record value = log10 of IC50 given in nM.

Indicate the recorded log10(IC50) value for this molecule: CC[C@H](C)[C@H](N)C(=O)N[C@@H](CC(C)C)C(=O)N[C@@H](CCSC)C(=O)N[C@@H](CCC(=O)O)C(=O)N[C@@H](CC(C)C)C(=O)N[C@@H](CCSC)C(=O)N[C@@H](C)C(=O)NCC(=O)NCC(=O)O (H-ILMELMAGG-OH; N-terminus and C-terminus assumed)
2.35

Indicate the recorded log10(IC50) value for this molecule: CC[C@H](C)[C@H](NC(=O)[C@@H](NC(=O)[C@@H](NC(=O)[C@H](CC(C)C)NC(=O)[C@@H](NC(=O)[C@@H]1CCCN1C(=O)CNC(=O)CNC(=O)[C@@H](NC(=O)[C@@H](N)[C@@H](C)O)[C@@H](C)CC)[C@@H](C)O)C(C)C)[C@@H](C)CC)C(=O)O (H-TIGGPTLVII-OH; N-terminus and C-terminus assumed)
4.03

Indicate the recorded log10(IC50) value for this molecule: CC[C@H](C)[C@H](N)C(=O)N[C@H](C(=O)N[C@@H](CCC(=O)O)C(=O)N[C@@H](Cc1ccc(O)cc1)C(=O)N[C@@H](CS)C(=O)N[C@@H](Cc1ccccc1)C(=O)N[C@@H](Cc1ccc(O)cc1)C(=O)NCC(=O)N[C@@H](CC(=O)O)C(=O)N[C@@H](CC(C)C)C(=O)O)[C@@H](C)CC (H-IIEYCFYGDL-OH; N-terminus and C-terminus assumed)
3.04

Indicate the recorded log10(IC50) value for this molecule: CC[C@H](C)[C@H](NC(=O)[C@H](CO)NC(=O)[C@H](CC(C)C)NC(=O)CN)C(=O)N[C@@H](CO)C(=O)N[C@@H](CS)C(=O)N[C@H](C(=O)N[C@H](C(=O)N[C@@H](CC(C)C)C(=O)O)[C@@H](C)O)[C@@H](C)O (H-GLSISCTTL-OH; N-terminus and C-terminus assumed)
2.06

Indicate the recorded log10(IC50) value for this molecule: `CC[C@H](C)[C@H](NC(=O)[C@@H](NC(=O)[C@H](CC(C)C)NC(=O)[C@@H](NC(=O)[C@@H]1CCCN1C(=O)[C@H](CCCNC(=N)N)NC(=O)[C@H](CCCNC(=N)N)NC(=O)[C@H](CC(N)=O)NC(=O)[C@H](CCSC)NC(=O)[C@@H](N)CO)[C@@H](C)CC)[C@@H](C)O)C(=O)O`
3.08

Indicate the recorded log10(IC50) value for this molecule: CSCC[C@H](NC(=O)[C@H](CCC(=O)O)NC(=O)[C@H](CC(C)C)NC(=O)[C@H](CC(C)C)NC(=O)[C@H](CC(C)C)NC(=O)[C@H](CC(=O)O)NC(=O)[C@H](CC(N)=O)NC(=O)[C@H](CC(C)C)NC(=O)[C@@H]1CCCN1)C(=O)O (H-PLNDLLLEM-OH; N-terminus and C-terminus assumed)
2.18
